// provenance: the supplement of paper PMC6555819

# Tested on: RARa:RXR (NR concentration 270 nM, RXRa partner concentration 90 nM)
# measurement description: PBM binding z-score (relative to random genomic background probes); higher = stronger binding; sequences stand for … in GC…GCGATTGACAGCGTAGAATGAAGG
Each entry gets No if its PBM binding z-score stays under 2, and Yes if its PBM binding z-score is 2 or above.

residues=TCATATAGGTAAAGATGAAAGTCGAACGATATGA system_tested="RARa:RXR (NR concentration 270 nM, RXRa partner concentration 90 nM)" cat=No
residues=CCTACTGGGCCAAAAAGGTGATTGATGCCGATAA system_tested="RARa:RXR (NR concentration 270 nM, RXRa partner concentration 90 nM)" cat=No

## Input Item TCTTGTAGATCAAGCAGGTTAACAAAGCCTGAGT with PBM binding z-score of 2 or above?
## Output No

## Input Item AATACACGGTCACTAGGCCAGAGTAGGTACGAAT with PBM binding z-score of 2 or above?
## Output No

## Input Item GCTTGTAGATCAAGGTTAAGGAAGACTAAGCTAA with PBM binding z-score of 2 or above?
## Output No

## Input Item CGTCAAAGTTCAACTATGGTAACGTAAAGCACGC with PBM binding z-score of 2 or above?
## Output Yes

## Input Item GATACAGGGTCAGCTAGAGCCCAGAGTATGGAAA with PBM binding z-score of 2 or above?
## Output Yes

## Input Item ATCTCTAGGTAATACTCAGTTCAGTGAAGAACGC with PBM binding z-score of 2 or above?
## Output No

## Input Item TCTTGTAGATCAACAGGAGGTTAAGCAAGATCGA with PBM binding z-score of 2 or above?
## Output No

## Input Item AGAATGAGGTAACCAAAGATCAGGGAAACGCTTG with PBM binding z-score of 2 or above?
## Output No

## Input Item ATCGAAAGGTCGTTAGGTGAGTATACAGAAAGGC with PBM binding z-score of 2 or above?
## Output Yes

## Input Item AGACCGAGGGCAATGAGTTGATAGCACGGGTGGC with PBM binding z-score of 2 or above?
## Output No

## Input Item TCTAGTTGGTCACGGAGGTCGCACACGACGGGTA with PBM binding z-score of 2 or above?
## Output No

## Input Item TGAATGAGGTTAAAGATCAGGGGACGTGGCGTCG with PBM binding z-score of 2 or above?
## Output Yes

## Input Item CGTCCAAGGTCAATGGTAGGTCAGTGAAAGCATT with PBM binding z-score of 2 or above?
## Output Yes

## Input Item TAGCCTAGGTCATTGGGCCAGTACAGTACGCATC with PBM binding z-score of 2 or above?
## Output Yes

## Input Item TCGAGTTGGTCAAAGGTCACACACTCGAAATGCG with PBM binding z-score of 2 or above?
## Output Yes

## Input Item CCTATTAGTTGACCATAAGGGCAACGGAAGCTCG with PBM binding z-score of 2 or above?
## Output No

## Input Item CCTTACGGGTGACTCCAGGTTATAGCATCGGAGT with PBM binding z-score of 2 or above?
## Output No

## Input Item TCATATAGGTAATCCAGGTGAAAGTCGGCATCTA with PBM binding z-score of 2 or above?
## Output No

## Input Item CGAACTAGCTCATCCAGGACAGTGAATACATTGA with PBM binding z-score of 2 or above?
## Output No

###

Measured PBM binding z-score accompanies every entry in the list below.
# Test system: THRa:RXRa (NR concentration 90 nM, RXRa partner concentration 90 nM)
# measurement description: PBM binding z-score (relative to random genomic background probes); higher = stronger binding; sequences stand for … in GC…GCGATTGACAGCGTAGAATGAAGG
// return just the number, without any unit appended

residues=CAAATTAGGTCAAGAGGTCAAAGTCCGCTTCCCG test_result=4.42
residues=CGTCAAAGTTCAACTAAGGTAACGTAGAGCACGC test_result=5.11
residues=CATACATGGTCAGCTAGGCCAGAGTAGGGACGGC test_result=-0.289

## Input Fill in: PBM binding z-score of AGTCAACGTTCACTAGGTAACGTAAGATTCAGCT is ___
## Output 0.401

## Input Fill in: PBM binding z-score of CTCGAACGGTCGGTTGAGGTGAGTATACGGATAA is ___
## Output 3.27

## Input Fill in: PBM binding z-score of ATCGGAAGGTCGTGAGGTGAGTATACAGAAAGGC is ___
## Output 2.83

## Input Fill in: PBM binding z-score of TATACAGGGTCAAAGGCCACAGTACGAATGTCGA is ___
## Output 3.53

## Input Fill in: PBM binding z-score of TCTCGGAGGACACGAAAGGTCAGAGTTCGACATC is ___
## Output 3.77

## Input Fill in: PBM binding z-score of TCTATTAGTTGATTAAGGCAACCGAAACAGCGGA is ___
## Output 0.746

## Input Fill in: PBM binding z-score of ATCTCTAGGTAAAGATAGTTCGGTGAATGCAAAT is ___
## Output 0.322

## Input Fill in: PBM binding z-score of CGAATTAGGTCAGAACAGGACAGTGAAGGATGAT is ___
## Output 3.86

## Input Fill in: PBM binding z-score of GCGACTGGGTCATCAGCAGGTTACCATAACTTAA is ___
## Output 2.88

###

# System: PPARg:RXRa IVT, anti-PPARg (NR concentration 270 nM, RXRa partner concentration 90 nM)
# measurement description: PBM binding z-score (relative to random genomic background probes); higher = stronger binding; sequences stand for … in GC…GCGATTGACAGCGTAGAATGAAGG
Measured PBM binding z-score accompanies every entry in the list below.
// return just the number, without any unit appended

residues=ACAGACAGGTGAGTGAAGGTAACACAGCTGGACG test_result=0.632

## Input Fill in: PBM binding z-score of TCTTGTAGATCAAAGGTTAAGTAAGCCGAAGCCT is ___
## Output 3.98

## Input Fill in: PBM binding z-score of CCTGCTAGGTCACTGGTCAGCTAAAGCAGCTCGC is ___
## Output 4.51

## Input Fill in: PBM binding z-score of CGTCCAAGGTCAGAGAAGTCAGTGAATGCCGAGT is ___
## Output 2.18

## Input Fill in: PBM binding z-score of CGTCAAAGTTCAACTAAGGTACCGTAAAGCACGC is ___
## Output 1.71

## Input Fill in: PBM binding z-score of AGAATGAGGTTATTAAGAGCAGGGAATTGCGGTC is ___
## Output 2.39

## Input Fill in: PBM binding z-score of CGATCTAGGTCAAGGACAGTGAATCTCCGCACGC is ___
## Output 8.16

###

# System: LXRb:RXRa (NR concentration 270 nM, RXRa partner concentration 90 nM)
# measurement description: PBM binding z-score (relative to random genomic background probes); higher = stronger binding; sequences stand for … in GC…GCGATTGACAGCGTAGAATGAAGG
Measured PBM binding z-score accompanies every entry in the list below.
// return just the number, without any unit appended

Below: 5 sequences and their reported PBM binding z-score.
residues=TGTGCTAGGTCAACGATGGTCAGCTAATCTGCTA readout_type="PBM binding z-score" test_result=1.54
residues=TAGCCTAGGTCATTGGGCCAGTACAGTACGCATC readout_type="PBM binding z-score" test_result=2.35
residues=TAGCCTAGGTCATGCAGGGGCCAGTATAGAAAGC readout_type="PBM binding z-score" test_result=2.24
residues=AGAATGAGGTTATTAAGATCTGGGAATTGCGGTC readout_type="PBM binding z-score" test_result=1.26
residues=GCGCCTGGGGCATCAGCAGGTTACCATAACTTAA readout_type="PBM binding z-score" test_result=0.294

## Input Fill in: PBM binding z-score of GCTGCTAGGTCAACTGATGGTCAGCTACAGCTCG is ___
## Output 1.97

## Input Fill in: PBM binding z-score of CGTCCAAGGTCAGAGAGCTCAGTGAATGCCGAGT is ___
## Output 1.84

## Input Fill in: PBM binding z-score of TCGTATAGGTAATACAGGTGAAAGTCGGCATCTA is ___
## Output 0.967

## Input Fill in: PBM binding z-score of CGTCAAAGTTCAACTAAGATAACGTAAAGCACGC is ___
## Output 4.14

## Input Fill in: PBM binding z-score of CCCTACGGGTCACTCCAGGTTATAGCATCGGAGT is ___
## Output 5.1

## Input Fill in: PBM binding z-score of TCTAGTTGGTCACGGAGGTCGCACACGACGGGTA is ___
## Output 1.04

## Input Fill in: PBM binding z-score of CGAACTAGGTCATCGACAGGACAGTGAATAGTAA is ___
## Output 2.02
